- assay_name: chemical genetic growth profiling, strain panel (AID 1159580);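 also: tested at 20 µM; growth read once vehicle control cultures reached saturation at 30 °C; 1 = growth at the plate median or of vehicle wells; lower values mean less growth of the strain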
- condition_context: S. cerevisiae deletion strains, growth OD, locus YDL035C, strain GPR1
The whole screen tested about 5,500 compounds, of which about 2,000 (36%) were called active. Inconclusive results (about 18%) are left out. Rule as the data show it: active = normalized growth mostly below about 0.91 (no sharp cut-off); inconclusive = no clear call, values can overlap the other calls; inactive = mostly above about 0.92. This is one part of the list.
Choose one outcome from this list and give only that: yes for active, no for inactive

| compound | class_assignment |
| --- | --- |
| COc1c(O)cc2c(-c3ccccc3)cc(=O)oc2c1OC | no |
| Cn1nnnc1SCC1=C(C(=O)O)N2C(=O)C(NC(=O)C(O)c3ccccc3)C2SC1 (centres undefined) | no |
| O=C1CCc2cc(OCCCCc3nnnn3C3CCCCC3)ccc2N1 | no |
| CC1(C)O[C@@H]2CC3C4C[C@H](F)C5=CC(=O)C=CC5(C)C4C(O)CC3(C)[C@]2(C(=O)CO)O1 (some centres undefined) | no |
| CC1(C)O[C@@H]2CC3C4CCC5=CC(=O)C=C[C@]5(C)[C@@]4(F)[C@@H](O)C[C@]3(C)[C@]2(C(=O)CO)O1 (some centres undefined) | no |

Prompt: Outcome? COC(=O)C1=C(C)NC(C)=C(C(=O)OC)C1c1ccccc1[N+](=O)[O-]
Response: yes

---

- assay_name: chemical genetic growth profiling, strain panel (AID 1159580);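 also: tested at 20 µM; growth read once vehicle control cultures reached saturation at 30 °C; 1 = growth at the plate median or of vehicle wells; lower values mean less growth of the strain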
- condition_context: S. cerevisiae deletion strains, growth OD, locus YKL085W, strain MDH1, active compounds read low
Among all 5,500 compounds or so, about 2,000 (36%) were called active. Inconclusive results (about 18%) are left out. This is one part of the list.
Recorded normalized growth values for a group of compounds are listed next.
Enter the number alone.

Completed entries (count: 5):
| compound | value_measured |
| --- | --- |
| O=c1[nH]c2cc(Cl)c(Cl)cc2[nH]c1=O | 1.01 |
| CCCCCCCCCc1ccc(O)cc1 | 0.311 |
| NCCc1ccc(O)c(O)c1 | 0.994 |
| COc1ccc(C(=O)/C=C/c2ccccc2)cc1 | 0.974 |
| CCCCC1C(=O)N(c2ccccc2)N(c2ccccc2)C1=O | 0.959 |

Prompt: Could you tell me which normalized growth is on file for NCCc1cccc(O)c1 ?
Response: 0.987

Prompt: CC(N)Cc1ccc(O)cc1 (stereo not drawn) ?
Response: 1.02

Prompt: Next up: O=C(/C=C/c1ccccc1)c1ccc(O)cc1
Response: 0.923

---

- assay_name: chemical genetic growth profiling, strain panel (AID 1159580);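 also: tested at 20 µM; growth read once vehicle control cultures reached saturation at 30 °C; 1 = growth at the plate median or of vehicle wells; lower values mean less growth of the strain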
- condition_context: S. cerevisiae deletion strains, growth OD, locus YNL298W, strain CLA4 (second series), active compounds read low
Hit rate of the full screen: of about 5,500 compounds, about 2,000 (36%) were called active. Another 18% or so got no clear call; they are omitted. The list shows a part of the results.
value_kind: normalized growth
I'd appreciate a reply containing only the number, no unit.

| compound | normalized growth |
| --- | --- |
| CCOC(=O)c1c(SC)[nH]c2c(C(F)(F)F)cccc2c1=O | 1.01 |
| COc1cc(NC(=O)NS(=O)(=O)c2ccc(C)cc2)cc(C(F)(F)F)c1 | 1.03 |
| O=C1NC(c2ccccc2Cl)Nc2ccccc21 (stereo not drawn) | 0.997 |
| COC(=O)c1ccc(Cl)cc1N(Cc1ccccc1)S(C)(=O)=O | 1.04 |
| CC(C)(C)OC(=O)NC1CCN(C(=O)c2ccc(Cl)cc2Cl)CC1 | 1.01 |
| CC(=O)C1COc2ccc(C)cc2C1=O (stereo not drawn) | 0.855 |
| O=C1CCCc2c1c1ccccc1n2Cc1ccccc1 | 0.95 |
| CC(C)(C)C(=O)N1CCN(c2ncccc2C(F)(F)F)CC1 | 0.966 |
| O=C(Nc1ccccc1SCc1cccc(C(F)(F)F)c1)c1c(F)cccc1Cl | 1.04 |
| FC(F)(F)c1ccc(-c2nc(-c3ccc4c(c3)OCCCO4)cs2)cc1 | 1.02 |

Prompt: Suppose we examine the compound CSc1nc(N)nc(C(C)(C)C)n1 ; what normalized growth value has been reported?
Response: 1.03

Prompt: Consider next the compound CCOC(=O)CSc1nnc(-c2cc(C(C)(C)C)nn2Cc2cccc(C)c2)n1C1CCCCC1 in the same way.
Response: 1

Prompt: And what about the compound Cc1cc(C(F)(F)F)c(C#N)c(=O)[nH]1 ?
Response: 1.02
